Data provenance is patent US20190300590A1.

# targetUnderTest: T1, IL23R_huFC (human, UniProt Q5VWK5 24-353)
# T1 sequence (looked up): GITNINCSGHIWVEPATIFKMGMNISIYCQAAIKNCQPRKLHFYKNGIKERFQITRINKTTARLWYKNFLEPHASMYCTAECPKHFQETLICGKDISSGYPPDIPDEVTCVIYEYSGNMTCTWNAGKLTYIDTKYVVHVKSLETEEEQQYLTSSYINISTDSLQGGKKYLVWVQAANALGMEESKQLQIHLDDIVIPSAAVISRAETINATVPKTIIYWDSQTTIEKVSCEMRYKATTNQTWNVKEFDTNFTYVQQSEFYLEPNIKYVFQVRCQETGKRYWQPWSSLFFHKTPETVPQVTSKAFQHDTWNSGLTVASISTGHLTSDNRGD
# test: human ELISA vs IL-23
pIC50: −log10 of the molar value. *1 amine or outer side, *2 acyl side, *3 side chain or, on linkers, in order; H or OH if unused. Bridges are numbered along the chain shown (N, C = ends). [ ]: non-standard residue; d: D form. Phe(4-CF3) = N[C@@H](Cc1ccc(C(F)(F)F)cc1)C(=O)O; Abu(4-yl) = O=C([C@H](CC[*:3])N[*:1])[*:2]; 2Nal = N[C@@H](Cc1ccc2ccccc2c1)C(=O)O; AEF = NCCOc1ccc(C[C@H](N)C(=O)O)cc1; Cit = NC(=O)NCCC[C@H](N)C(=O)O; αMeL = CC(C)C[C@](C)(N)C(=O)O; αMeK = C[C@](N)(CCCCN)C(=O)O; Abu = CC[C@H](N)C(=O)O
readout: pIC50

// below: answered binders
Just so you know, measured pIC50 for Ac-[Abu]TTWQC[AEF][2Nal][αMeK]ENG-NH2 (thioether 1-6) [Ac-Cyclo-[[Abu]-TTWQC]-[Phe[4-(2-aminoethoxy)]]-[2-Nal]-[α-MeLys]-ENG-NH2] came out at > 8.00

Just so you know, measured pIC50 for Ac-[dR][Abu]QTWQC[AEF][2Nal][αMeK]ENN-NH2 (thioether 2-7) [Ac-[(D)Arg]-Cyclo-[[Abu]-QTWQC]-[Phe[4-(2-aminoethoxy)]]-[2-Nal]-[α-MeLys]-ENN-NH2] came out at > 8.00

Just so you know, measured pIC50 for Ac-[Abu]QTWQC[AEF][2Nal][αMeL][Cit]NN-NH2 (thioether 1-6) [Ac-Cyclo-[[Abu]-QTWQC]-[Phe[4-(2-aminoethoxy)]]-[2-Nal]-[α-MeLeu)-[Cit]-NN-NH2] came out at > 8.00

Just so you know, measured pIC50 for Ac-E[Abu(4-yl)]QTWQC[AEF][2Nal][αMeK]ENN-NH2 (thioether 2-7; SMILES CC(=O)N[C@@H](CCC(=O)O)C(=O)N[C@H]1CCSC[C@@H](C(=O)N[C@@H](Cc2ccc(OCCN)cc2)C(=O)N[C@@H](Cc2ccc3ccccc3c2)C(=O)N[C@@](C)(CCCCN)C(=O)N[C@@H](CCC(=O)O)C(=O)N[C@@H](CC(N)=O)C(=O)N[C@@H](CC(N)=O)C(N)=O)NC(=O)[C@H](CCC(N)=O)NC(=O)[C@H](Cc2c[nH]c3ccccc23)NC(=O)[C@H]([C@@H](C)O)NC(=O)[C@H](CCC(N)=O)NC1=O) [Ac-E-Cyclo-[[Abu]-QTWQC]-[Phe[4-(2-aminoethoxy)]]-[2-Nal]-[α-MeLys]-ENN-NH2] came out at > 8.00

More entries:
Just so you know, measured pIC50 for Ac-[Abu]QT[Phe(4-CF3)]QC[AEF][2Nal][αMeK]ENG-NH2 (thioether 1-6) [Ac-Cyclo-[[Abu]-QT-[Phe(4-CF3)]-QC]-[Phe[4-(2-aminoethoxy)]]-[2-Nal]-[α-MeLys]-ENG-NH2] came out at ~5.52

Just so you know, measured pIC50 for Ac-[Abu]QTWQC[AEF][2Nal][αMeL]K(Ac)NN-NH2 (thioether 1-6) [Ac-Cyclo-[[Abu]-QTWQC]-[Phe[4-(2-aminoethoxy)]]-[2-Nal]-[α-MeLeu]-[Lys(Ac)]-NN-NH2] came out at > 8.00
